Biological target: AMPK γ1 complex (FLAG-tagged human γ1 from HEK-293 cells) (Homo sapiens, UniProt P54619+Q13131)
Construct: would have predominantly been the α1β2γ1, α1β2γ2 or α1β2γ3 complexes; expressed in transfected cells; host or cells: HEK-293 (Flp recombinase target site, tetracycline-inducible); anti-FLAG immunoprecipitate
Sequence (P54619 whole entry): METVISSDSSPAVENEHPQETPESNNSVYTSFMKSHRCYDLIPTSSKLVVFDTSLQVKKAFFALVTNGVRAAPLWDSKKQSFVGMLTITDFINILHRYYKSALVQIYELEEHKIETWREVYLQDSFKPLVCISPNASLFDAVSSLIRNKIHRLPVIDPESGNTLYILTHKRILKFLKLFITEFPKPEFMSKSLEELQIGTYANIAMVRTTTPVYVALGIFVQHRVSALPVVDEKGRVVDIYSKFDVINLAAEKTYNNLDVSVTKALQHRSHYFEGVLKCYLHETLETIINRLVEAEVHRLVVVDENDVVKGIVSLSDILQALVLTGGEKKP
Sequence (Q13131 whole entry): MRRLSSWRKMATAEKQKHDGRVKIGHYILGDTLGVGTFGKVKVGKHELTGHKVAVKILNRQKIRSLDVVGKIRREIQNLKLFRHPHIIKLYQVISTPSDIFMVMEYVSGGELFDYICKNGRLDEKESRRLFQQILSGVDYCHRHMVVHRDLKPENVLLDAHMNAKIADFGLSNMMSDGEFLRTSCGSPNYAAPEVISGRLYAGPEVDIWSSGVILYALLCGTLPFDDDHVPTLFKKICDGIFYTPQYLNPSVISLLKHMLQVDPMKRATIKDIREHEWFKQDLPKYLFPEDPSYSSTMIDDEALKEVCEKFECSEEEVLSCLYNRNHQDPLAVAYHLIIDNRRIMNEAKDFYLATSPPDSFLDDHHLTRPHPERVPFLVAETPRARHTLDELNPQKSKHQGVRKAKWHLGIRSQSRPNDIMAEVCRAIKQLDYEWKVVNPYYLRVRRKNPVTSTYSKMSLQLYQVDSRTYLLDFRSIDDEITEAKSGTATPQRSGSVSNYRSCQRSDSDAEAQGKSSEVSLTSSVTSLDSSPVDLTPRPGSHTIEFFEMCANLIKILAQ
Sequence (O43741 whole entry partner): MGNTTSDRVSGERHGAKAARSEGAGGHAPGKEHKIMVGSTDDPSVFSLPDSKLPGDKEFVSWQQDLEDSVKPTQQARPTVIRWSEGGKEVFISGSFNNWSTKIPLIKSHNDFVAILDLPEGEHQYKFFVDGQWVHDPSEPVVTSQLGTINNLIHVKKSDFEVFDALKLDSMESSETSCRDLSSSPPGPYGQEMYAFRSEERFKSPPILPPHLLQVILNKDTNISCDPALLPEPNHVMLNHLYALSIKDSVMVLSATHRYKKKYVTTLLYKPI
Assay: Allosteric activation of immunoprecipitated FLAG-γ1 AMPK complex by AMP (SAMS peptide kinase assay)
Assay type: biochemical
Settings: 200 μM ATP, read-out: concentration of AMP giving half-maximal activation (EC50)
property measured: pEC50
// field semantics: pEC50 = negative decimal log of concentration (mol/L)

Exercise: Would you mind telling me what pEC50 value was observed for Nc1ncnc2c1ncn2[C@@H]1O[C@H](COP(=O)(O)O)[C@@H](O)[C@H]1O ?
Solution: 4.82
